The reported numbers originate from ChEMBL document CHEMBL4837190.

Listed next: entries and their corresponding pIC50.
# Tested on: Plasmodium falciparum
# protocol.text: Antiplasmodial activity against chloroquine-resistant Plasmodium falciparum FcB1/Colombia infected in human red blood cells assessed as reduction in [3H]-hypoxanthine incorporation measured after 24 hrs liquid scintillation counting method
# Type: functional, organism-based, RBC
# measurement.setup: Erythrocyte
pIC50: −log10 of the molar value.
reported.endpoint: pIC50

INSERT INTO results (compound_string, target_or_test_system, readout_value) VALUES
  ('C/C=C1/CN(C)[C@@H]2Cc3c([nH]c4ccccc34)C(=O)C[C@H]1[C@H]2C(=O)OC', 'Plasmodium falciparum', 4.65),
  ('C/C=C1/CN(C)[C@@H]2Cc3c([nH]c4ccccc34)[C@@H](S)C[C@H]1[C@H]2C(=O)OC', 'Plasmodium falciparum', 5.98),
  ('CC[C@H]1N[C@H]2C[C@@]3(C(=O)N(OC)c4ccccc43)[C@@H]3C[C@@H]1[C@@H]2CO3', 'Plasmodium falciparum', 4.37),
  ('CC[C@H]1N[C@H]2C[C@@]3(C(=O)N(OC)c4cc(OC)ccc43)[C@@H]3C[C@@H]1[C@@H]2CO3', 'Plasmodium falciparum', 4.23);
